Just for reference, the Immune Epitope Database (IEDB) is where these values come from.

# targetOrTestSystem: HLA-B*57:01
# experimentSummary: IEDB peptide-MHC binding, purified MHC/competitive/fluorescence; filed as Kd, often an IC50 or EC50 that approximates it; bounds were set here for any values at or beyond the usual limits of such assays
# experimentalSetup: source organism: Human herpesvirus 4 strain B95-8
measure: pKd
// scale note: pKd = -log10(conc_M); give the bare number

Per the record, VSFIEFVGW has pKd of 7.60

----------
# targetOrTestSystem: HLA-C*06:02
# experimentSummary: IEDB peptide-MHC binding, purified MHC/direct/fluorescence; filed as Kd, often an IC50 or EC50 that approximates it; bounds were set here for any values at or beyond the usual limits of such assays
# experimentalSetup: source organism: Vaccinia virus L-IPV
measure: pKd
// scale note: pKd = -log10(conc_M); give the bare number

Per the record, VLPFDIKYI has pKd of 5.47

----------
# targetOrTestSystem: HLA-B*44:02
# experimentSummary: IEDB peptide-MHC binding, purified MHC/direct/fluorescence; filed as Kd, often an IC50 or EC50 that approximates it; bounds were set here for any values at or beyond the usual limits of such assays
# experimentalSetup: source organism: Mycobacterium tuberculosis
measure: Kd

Per the record, SQAFNTPAL has Kd of ≥ 20 µM

----------
# targetOrTestSystem: HLA-B*15:01
# experimentSummary: IEDB peptide-MHC binding, purified MHC/competitive/fluorescence; filed as Kd, often an IC50 or EC50 that approximates it; bounds were set here for any values at or beyond the usual limits of such assays
# experimentalSetup: source organism: Bacillus anthracis str. A0488
measure: pKd
// scale note: pKd = -log10(conc_M); give the bare number

For MTVFSYKAF on HLA-B*15:01, measured pKd was 6.72

----------
# targetOrTestSystem: HLA-A*02:16
# experimentSummary: IEDB peptide-MHC binding, purified MHC/competitive/fluorescence; filed as Kd, often an IC50 or EC50 that approximates it; bounds were set here for any values at or beyond the usual limits of such assays
# experimentalSetup: source organism: Vibrio cholerae 2740-80
pKd: −log10 of the molar value.
measure: pKd

For CERYGFPAS on HLA-A*02:16, measured pKd was ≤ 4.70

----------
# targetOrTestSystem: HLA-B*44:03
# experimentSummary: IEDB peptide-MHC binding, purified MHC/competitive/radioactivity; filed as Kd, often an IC50 or EC50 that approximates it; bounds were set here for any values at or beyond the usual limits of such assays
# experimentalSetup: source organism: Dengue virus 2 Jamaica/1409/1983
measure: Kd (nM)
Respond with the bare value in nM.

1. NEAIMAVGM :: 224

Per the record, AEISGSSPIL has Kd of 6.75

Per the record, SENEVKLTIM has Kd of 377

Per the record, REAVEDSRFW has Kd of 127

Per the record, HEEPIPMSTY has Kd of 251

----------
# targetOrTestSystem: HLA-A*02:19
# experimentSummary: IEDB peptide-MHC binding, purified MHC/direct/fluorescence; filed as Kd, often an IC50 or EC50 that approximates it; bounds were set here for any values at or beyond the usual limits of such assays
# experimentalSetup: source organism: Orthohantavirus tulaense
measure: Kd

For RRAYSGKQY on HLA-A*02:19, measured Kd was ≥ 20 µM

----------
# targetOrTestSystem: HLA-B*51:01
# experimentSummary: IEDB peptide-MHC binding, purified MHC/competitive/radioactivity; filed as Kd, often an IC50 or EC50 that approximates it; bounds were set here for any values at or beyond the usual limits of such assays
# experimentalSetup: source organism: Hepatitis C virus (isolate H)
measure: pKd
// scale note: pKd = -log10(conc_M); give the bare number

Per the record, HPALVFDIT has pKd of 5.15

----------
# targetOrTestSystem: HLA-A*02:06
# experimentSummary: IEDB peptide-MHC binding, purified MHC/competitive/radioactivity; filed as Kd, often an IC50 or EC50 that approximates it; bounds were set here for any values at or beyond the usual limits of such assays
# experimentalSetup: source organism: Hepatitis C virus (isolate Th580)
measure: Kd

Per the record, VLSDFKTWL has Kd of ≥ 29.5 µM

----------
# targetOrTestSystem: HLA-A*02:01
# experimentSummary: IEDB peptide-MHC binding, purified MHC/direct/fluorescence; filed as Kd, often an IC50 or EC50 that approximates it; bounds were set here for any values at or beyond the usual limits of such assays
# experimentalSetup: source organism: Orthohantavirus andesense
measure: pKd
// scale note: pKd = -log10(conc_M); give the bare number

Per the record, YLIPSVTSL has pKd of 8.74

----------
# targetOrTestSystem: HLA-B*54:01
# experimentSummary: IEDB peptide-MHC binding, purified MHC/competitive/radioactivity; filed as Kd, often an IC50 or EC50 that approximates it; bounds were set here for any values at or beyond the usual limits of such assays
# experimentalSetup: source organism: Vaccinia virus WR
measure: Kd (µM)
Respond with the bare value in µM.

Past entries and their recorded results:
1) TPNNLNKIQL :: 13.5
2) MPYNILDRII :: 0.0084
3) MPEKRNVVV :: 0.033

Next up:
Per the record, RLLIWAYLSK has Kd of 11.3

----------
# targetOrTestSystem: HLA-A*11:01
# experimentSummary: IEDB peptide-MHC binding, purified MHC/direct/fluorescence; filed as Kd, often an IC50 or EC50 that approximates it; bounds were set here for any values at or beyond the usual limits of such assays
# experimentalSetup: source organism: Yellow fever virus 17D
measure: Kd (nM)
Respond with the bare value in nM.

Per the record, VLWDIPTPK has Kd of 4.4

----------
# targetOrTestSystem: HLA-B*08:01
# experimentSummary: IEDB peptide-MHC binding, purified MHC/competitive/radioactivity; filed as Kd, often an IC50 or EC50 that approximates it; bounds were set here for any values at or beyond the usual limits of such assays
# experimentalSetup: source organism: Hepatitis C virus (isolate H)
measure: Kd (nM)
Respond with the bare value in nM.

Per the record, HPALVFDIT has Kd of 974

----------
# targetOrTestSystem: HLA-A*68:01
# experimentSummary: IEDB peptide-MHC binding, purified MHC/competitive/radioactivity; filed as Kd, often an IC50 or EC50 that approximates it; bounds were set here for any values at or beyond the usual limits of such assays
# experimentalSetup: source organism: Vaccinia virus WR
pKd: −log10 of the molar value.
Consider the reported pKd of an entry and match it to a band in lower range (below 6), middle range (6 to below 7), upper range (7 or more)

1) DLVKSYSLIR :: lower range
2) GLSETGFMR :: lower range
3) VIEDITFLR :: upper range
4) IICEDAMYY :: lower range
5) FSKNILKYY :: lower range
6) GTSNWTGNY :: lower range
7) ESMASLKSLY :: upper range
8) DFRNRYEDY :: lower range

Band for PSTVKTNLY ?
lower range

Band for FSKSTSPTR ?
upper range

Band for QMLTSGEYK ?
middle range

Band for TFIMLEGETK ?
middle range

Band for TAVCMKCFK ?
upper range

Band for NSYISNIIY ?
middle range

Band for ILTYNKTSK ?
middle range

Band for HSVFKGFSDK ?
upper range

----------
# targetOrTestSystem: HLA-B*08:01
# experimentSummary: IEDB peptide-MHC binding, purified MHC/competitive/radioactivity; filed as Kd, often an IC50 or EC50 that approximates it; bounds were set here for any values at or beyond the usual limits of such assays
# experimentalSetup: source organism: Dengue virus 3 Martinique/1243/1999
measure: Kd (nM)
Respond with the bare value in nM.

Per the record, INKRKKTSL has Kd of 18.3

----------
# targetOrTestSystem: HLA-B*51:01
# experimentSummary: IEDB peptide-MHC binding, purified MHC/competitive/radioactivity; filed as Kd, often an IC50 or EC50 that approximates it; bounds were set here for any values at or beyond the usual limits of such assays
# experimentalSetup: source organism: Hepacivirus hominis
pKd: −log10 of the molar value.
measure: pKd

For RNWAHSSL on HLA-B*51:01, measured pKd was ≤ 4.29

----------
# targetOrTestSystem: HLA-A*24:02
# experimentSummary: IEDB peptide-MHC binding, purified MHC/direct/fluorescence; filed as Kd, often an IC50 or EC50 that approximates it; bounds were set here for any values at or beyond the usual limits of such assays
# experimentalSetup: source organism: Influenza A virus (A/Viet Nam/HN/2004(H5N1))
measure: Kd

Per the record, ERNEQGQTL has Kd of ≥ 20 µM

----------
# targetOrTestSystem: HLA-A*30:01
# experimentSummary: IEDB peptide-MHC binding, purified MHC/competitive/radioactivity; filed as Kd, often an IC50 or EC50 that approximates it; bounds were set here for any values at or beyond the usual limits of such assays
# experimentalSetup: source organism: Vaccinia virus Copenhagen
measure: Kd (nM)
Respond with the bare value in nM.

Per the record, RTKPISMYF has Kd of 0.598
